Data origin, for the record: PubChem BioAssay AID2060332

- Test system: LG0567-F671-PDC multi-cell spheroid viability
- Measurement description: Anticancer human tumor LG0567-F671-PDC patient-derived lung adenocarcinoma cell line growth inhibition [IpAb]
- Measurement setup: second compound 0.1 µM; first compound 0.03 µM; hits give low values
Measured quantity: viability, T/C (%)
Enter your answer as a number in %; do not include the unit.

The cases that follow already have their viability, T/C on record.
>>> endpoint_value("CC(C)(C)c1cnc(CSc2cnc(NC(=O)C3CCNCC3)s2)o1 + CCN1CCN(Cc2ccc(Nc3ncc(F)c(-c4cc(F)c5nc(C)n(C(C)C)c5c4)n3)nc2)CC1")
81.8
>>> endpoint_value("CC(=O)c1c(C)c2cnc(Nc3ccc(N4CCNCC4)cn3)nc2n(C2CCCC2)c1=O + CCN1CCN(Cc2ccc(Nc3ncc(F)c(-c4cc(F)c5nc(C)n(C(C)C)c5c4)n3)nc2)CC1")
80.2

API: the following record is the query input.
Need viability, T/C of Cn1cnc2c(F)c(Nc3ccc(Br)cc3Cl)c(C(=O)NOCCO)cc21 + CCN1CCN(Cc2ccc(Nc3ncc(F)c(-c4cc(F)c5nc(C)n(C(C)C)c5c4)n3)nc2)CC1 , thanks.
38.5

====

- Tested on: LG0567-F671-PDC multi-cell spheroid viability
- Measurement description: Anticancer human tumor LG0567-F671-PDC cell line growth inhibition [IpAb];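 further: viability read after 7 days of drug exposure; 100% = DMSO vehicle control luminescence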
- Measurement setup: second compound 1 µM; first compound 3.16 µM; hits give low values
hey, just use satisfied if measured viability, T/C is less than 40%, otherwise not satisfied

>>> label_class("C=CCn1c(=O)c2cnc(Nc3ccc(N4CCN(C)CC4)cc3)nc2n1-c1cccc(C(C)(C)O)n1 + CCN1CCN(Cc2ccc(Nc3ncc(F)c(-c4cc(F)c5nc(C)n(C(C)C)c5c4)n3)nc2)CC1")
"satisfied"

hey, is viability, T/C for C=CC(=O)N1CCN(c2nc(=O)n(-c3c(C)ccnc3C(C)C)c3nc(-c4c(O)cccc4F)c(F)cc23)C(C)C1 (centres undefined) + CC(C)NCC(C(=O)N1CCN(c2ncnc3c2C(C)CC3O)CC1)c1ccc(Cl)cc1 lower than 40% or not?
satisfied

Identify whether the molecule Cn1nccc1Nc1nccc(-c2ccn(C(CO)c3ccc(Cl)c(F)c3)c(=O)c2)n1 (centres undefined) + CCN1CCN(Cc2ccc(Nc3ncc(F)c(-c4cc(F)c5nc(C)n(C(C)C)c5c4)n3)nc2)CC1 records viability, T/C below 40%.
satisfied

I wonder whether CC1(C)CCC(CN2CCN(c3ccc(C(=O)NS(=O)(=O)c4ccc(NCC5CCOCC5)c([N+](=O)[O-])c4)c(Oc4cnc5[nH]ccc5c4)c3)CC2)=C(c2ccc(Cl)cc2)C1 + CCN1CCN(Cc2ccc(Nc3ncc(F)c(-c4cc(F)c5nc(C)n(C(C)C)c5c4)n3)nc2)CC1 has viability, T/C below 40%. Can you tell?
not satisfied

Input Cc1nc(NC(=O)N2CCCC2C(N)=O)sc1-c1ccnc(C(C)(C)C(F)(F)F)c1 (centres undefined) + CCN1CCN(Cc2ccc(Nc3ncc(F)c(-c4cc(F)c5nc(C)n(C(C)C)c5c4)n3)nc2)CC1 ; condition: viability, T/C strictly below 40%. Does it hold?
not satisfied

Does Cc1nc(NC(=O)N2CCCC2C(N)=O)sc1-c1ccnc(C(C)(C)C(F)(F)F)c1 (centres undefined) + CC(C)NCC(C(=O)N1CCN(c2ncnc3c2C(C)CC3O)CC1)c1ccc(Cl)cc1 have viability, T/C strictly under 40%?
satisfied

Hello, is viability, T/C of the following molecule strictly smaller than 40%? Cn1nccc1Nc1nccc(-c2ccn(C(CO)c3ccc(Cl)c(F)c3)c(=O)c2)n1 (centres undefined) + CC(C)NCC(C(=O)N1CCN(c2ncnc3c2C(C)CC3O)CC1)c1ccc(Cl)cc1
satisfied

viability, T/C strictly < 40% for this molecule? CC1(C)CCC(CN2CCN(c3ccc(C(=O)NS(=O)(=O)c4ccc(NCC5CCOCC5)c([N+](=O)[O-])c4)c(Oc4cnc5[nH]ccc5c4)c3)CC2)=C(c2ccc(Cl)cc2)C1 + CC(C)NCC(C(=O)N1CCN(c2ncnc3c2C(C)CC3O)CC1)c1ccc(Cl)cc1
not satisfied

Take the molecule CCCS(=O)(=O)Nc1ccc(F)c(C(=O)c2c[nH]c3ncc(-c4ccc(Cl)cc4)cc23)c1F + CCN1CCN(Cc2ccc(Nc3ncc(F)c(-c4cc(F)c5nc(C)n(C(C)C)c5c4)n3)nc2)CC1 and say whether its viability, T/C is less than 40%.
not satisfied

Quick check: viability, T/C of Cn1ncc(Cl)c1-c1cc(C(=O)NC(CN)Cc2cccc(F)c2)sc1Cl (centres undefined) + CCN1CCN(Cc2ccc(Nc3ncc(F)c(-c4cc(F)c5nc(C)n(C(C)C)c5c4)n3)nc2)CC1 under 40%?
satisfied

Take the molecule CCCS(=O)(=O)Nc1ccc(F)c(C(=O)c2c[nH]c3ncc(-c4ccc(Cl)cc4)cc23)c1F + CC(C)NCC(C(=O)N1CCN(c2ncnc3c2C(C)CC3O)CC1)c1ccc(Cl)cc1 and say whether its viability, T/C is less than 40%.
not satisfied

Strictly below 40% in viability, T/C? C=CC(=O)N1CCN(c2nc(=O)n(-c3c(C)ccnc3C(C)C)c3nc(-c4c(O)cccc4F)c(F)cc23)C(C)C1 (centres undefined) + CCN1CCN(Cc2ccc(Nc3ncc(F)c(-c4cc(F)c5nc(C)n(C(C)C)c5c4)n3)nc2)CC1
satisfied

In plain terms, does Cn1ncc(Cl)c1-c1cc(C(=O)NC(CN)Cc2cccc(F)c2)sc1Cl (centres undefined) + CC(C)NCC(C(=O)N1CCN(c2ncnc3c2C(C)CC3O)CC1)c1ccc(Cl)cc1 come in under 40% for viability, T/C?
satisfied

In the record for C=CCn1c(=O)c2cnc(Nc3ccc(N4CCN(C)CC4)cc3)nc2n1-c1cccc(C(C)(C)O)n1 + CC(C)NCC(C(=O)N1CCN(c2ncnc3c2C(C)CC3O)CC1)c1ccc(Cl)cc1 , is viability, T/C less than 40%?
satisfied

====

Listed here: items and their measured viability, T/C.
- Test system: LG0567-F671-PDC multi-cell spheroid viability
- Measurement description: Anticancer human tumor LG0567-F671-PDC cell line growth inhibition [IpAb];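 further: viability read after 7 days of drug exposure; 100% = DMSO vehicle control luminescence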
- Measurement setup: second compound 3.16 µM; first compound 3.16 µM; hits give low values
Numeric only. Scale: %

Would you mind telling me what viability, T/C value was observed for C=CCn1c(=O)c2cnc(Nc3ccc(N4CCN(C)CC4)cc3)nc2n1-c1cccc(C(C)(C)O)n1 + CC(C)NCC(C(=O)N1CCN(c2ncnc3c2C(C)CC3O)CC1)c1ccc(Cl)cc1 ?
36.9

Need viability, T/C of Cn1nccc1Nc1nccc(-c2ccn(C(CO)c3ccc(Cl)c(F)c3)c(=O)c2)n1 (configuration not stated) + CC(C)NCC(C(=O)N1CCN(c2ncnc3c2C(C)CC3O)CC1)c1ccc(Cl)cc1 , thanks.
19.3

What value of measured viability, T/C is listed for C=CC(=O)N1CCN(c2nc(=O)n(-c3c(C)ccnc3C(C)C)c3nc(-c4c(O)cccc4F)c(F)cc23)C(C)C1 (configuration not stated) + CC(C)NCC(C(=O)N1CCN(c2ncnc3c2C(C)CC3O)CC1)c1ccc(Cl)cc1 ?
10.4

====

- Tested on: LG0567-F671-PDC multi-cell spheroid viability
- Measurement description: Anticancer human tumor LG0567-F671-PDC cell line growth inhibition [IpAb];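 further: viability read after 7 days of drug exposure; 100% = DMSO vehicle control luminescence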
- Measurement setup: second compound 0.0316 µM; first compound 1 µM; hits give low values
- Procedure: Combinatorial screen of targeted agents with ipatasertib and abemaciclib in multi-cell type tumor spheroids […] Compounds. […] If the clinical Cmax for an agent had not been determined, the highest concentration tested was 10 microM. NCI60 Cell Culture. […] The optimal seeding densities for each of the cell lines at each time point assessed were determined prior to performing the concentration response studies. […]
The threshold is 40%. Values of viability, T/C beneath it are tagged rule met; values meeting or exceeding it are tagged rule not met.

Worked examples follow.
>>> label_class("CCCS(=O)(=O)Nc1ccc(F)c(C(=O)c2c[nH]c3ncc(-c4ccc(Cl)cc4)cc23)c1F + CCN1CCN(Cc2ccc(Nc3ncc(F)c(-c4cc(F)c5nc(C)n(C(C)C)c5c4)n3)nc2)CC1")
"rule not met"
>>> label_class("CC1(C)CCC(CN2CCN(c3ccc(C(=O)NS(=O)(=O)c4ccc(NCC5CCOCC5)c([N+](=O)[O-])c4)c(Oc4cnc5[nH]ccc5c4)c3)CC2)=C(c2ccc(Cl)cc2)C1 + CCN1CCN(Cc2ccc(Nc3ncc(F)c(-c4cc(F)c5nc(C)n(C(C)C)c5c4)n3)nc2)CC1")
"rule not met"
>>> label_class("Cc1nc(NC(=O)N2CCCC2C(N)=O)sc1-c1ccnc(C(C)(C)C(F)(F)F)c1 (stereo not drawn) + CCN1CCN(Cc2ccc(Nc3ncc(F)c(-c4cc(F)c5nc(C)n(C(C)C)c5c4)n3)nc2)CC1")
"rule not met"
>>> label_class("C=CCn1c(=O)c2cnc(Nc3ccc(N4CCN(C)CC4)cc3)nc2n1-c1cccc(C(C)(C)O)n1 + CCN1CCN(Cc2ccc(Nc3ncc(F)c(-c4cc(F)c5nc(C)n(C(C)C)c5c4)n3)nc2)CC1")
"rule not met"
>>> label_class("Cn1nccc1Nc1nccc(-c2ccn(C(CO)c3ccc(Cl)c(F)c3)c(=O)c2)n1 (stereo not drawn) + CCN1CCN(Cc2ccc(Nc3ncc(F)c(-c4cc(F)c5nc(C)n(C(C)C)c5c4)n3)nc2)CC1")
"rule met"

Hello, I'm reviewing records and need to know if viability, T/C of COc1c(OCCCN2CCOCC2)ccc2c3n(c(=NC(=O)c4cnc(N)nc4)nc12)CCN3 + CCN1CCN(Cc2ccc(Nc3ncc(F)c(-c4cc(F)c5nc(C)n(C(C)C)c5c4)n3)nc2)CC1 is below 40%. Could you check?
rule met

Is viability, T/C of C=CC(=O)N1CCN(c2nc(=O)n(-c3c(C)ccnc3C(C)C)c3nc(-c4c(O)cccc4F)c(F)cc23)C(C)C1 (stereo not drawn) + CCN1CCN(Cc2ccc(Nc3ncc(F)c(-c4cc(F)c5nc(C)n(C(C)C)c5c4)n3)nc2)CC1 strictly below 40%?
rule met

Consider the compound Cn1ncc(Cl)c1-c1cc(C(=O)NC(CN)Cc2cccc(F)c2)sc1Cl (stereo not drawn) + CCN1CCN(Cc2ccc(Nc3ncc(F)c(-c4cc(F)c5nc(C)n(C(C)C)c5c4)n3)nc2)CC1 . Is its viability, T/C strictly less than 40%?
rule not met
